- measurement-notes: modulators of CIT2-GFP expression in yeast, confirmation, S. cerevisiae, GFP fusion, cherry picks, mother/daughter gates (AID 2274)
- condition-parameters: S. cerevisiae CIT2-GFP strain, flow cytometry, 3 h; at 10 µM; stronger effect = higher value
readout-label: GFP response, % of DMSO (%)
Write the answer as a number in %, unit excluded.

Worked examples follow.
- O=C1c2cccc3cccc(c23)C(=O)N1c1nccs1: 130
- Cc1cc(Br)c2c(c1)/C(=C/C(=O)c1cccs1)C(=O)N2: 98.4
- COc1ccc(NC2=C(Cl)C(=O)N(CCc3ccccc3)C2=O)cc1: 102
- COc1cccc(CC(=O)OC(C)C(=O)Nc2ncc(Cl)cc2Cl)c1 (stereo unspecified): 97.8
- O=C(CS(=O)c1ccccc1[N+](=O)[O-])Oc1ccc(Br)cc1 (stereo unspecified): 98.6

Given COc1cc(-c2nc3ccccn3c2NCC2CCCO2)ccc1O (stereo unspecified) , state its recorded GFP response, % of DMSO.
106

And for Cc1ccccc1OCC(=O)NNC(=S)NC(=O)c1ccco1 ?
125

Same thing, different compound: O=C(COC(=O)c1n[nH]c2ccccc12)c1ccc(F)c(F)c1
98.6

Repeat for the following compound: O=C(Nc1c(-c2ccccc2)nc2c(Br)cc(Br)cn12)c1ccco1
100

###

Entries and their differentiation response values follow.
- measurement-notes: promoters of myeloid differentiation in arrested cells, primary screen, cell-based, GFP/MAC1 double positive, flow cytometry, validation set (AID 588685);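 also: compound exposure lasts four days before antibody staining and flow analysis; 0% = DMSO wells and 100% = 5 µM fulvestrant positive control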
- condition-parameters: ER-HoxA9 marrow cells, stronger effect = higher value, normalized: vehicle 0, fulvestrant 100
Express your answer in %, writing the number without its unit.

Examples with answers:
- CC(=O)/C=C/c1ccc(C)o1: 28
- Cc1cc(OC(C(=O)O)c2ccccc2)c2c(C)c(Cc3ccccc3)c(=O)oc2c1 (stereo unspecified): -3.43
- COc1cc(NC(=O)N[C@@H](Cc2ccccc2)C(=O)O)cc(OC)c1: 0.92
- CC(=O)Oc1ccc2occ(/C=N/c3cc(=O)[nH]c(=S)[nH]3)c(=O)c2c1: 40.2
- CCOC(=O)c1c(C)oc2cc(Br)c(OC(C)C(=O)OCC)cc12 (stereo unspecified): -1.64

Consider the record given below.
If you can, please state the reported differentiation response value of C[C@H](NC(=O)OC(C)(C)C)C(=O)NCC1CCC(C(=O)O)CC1 (stereo partly specified) .
0.8

###

Listing: GFP response vs DMSO of selected molecules
- measurement-notes: RPL19A-GFP modulators, yeast TOR pathway, confirmation, cell-based, S. cerevisiae, flow cytometry, cherry picks, mother/daughter gates (AID 2270)
- condition-parameters: S. cerevisiae RPL19A-GFP strain, 3 h, measured here: daughter cell gate, at 10 µM, stronger effect = lower value, 100 = same GFP as DMSO wells
Express your answer in %, writing the number without its unit.

Sample answers from the record:
• CCN(CC)C(=O)c1ccc(-c2cccs2)s1 = 94.6
• Cc1cccc(N2C(=O)CC(Sc3nc(C)c4c(n3)CCCC4)C2=O)c1 (centres undefined) = 95.4
• O=C(CCc1nc(-c2ccccc2)no1)Nc1cc(C(F)(F)F)ccc1Cl = 105
• O=C(Nc1ccc(NC(=O)c2cc3ccccc3o2)cc1)c1ccco1 = 97.6
• Oc1c(CN2CCCCC2)cc(Br)c2cccnc12 = 103
• CCc1nn2c(N3CCOCC3)cc(C)nc2c1-c1ccc(F)cc1 = 99.8
• O=C(N/N=C/c1cccc(Oc2ccccc2)c1)c1ccncc1 = 97.3
• COc1ccc(-c2noc(-c3cccc(Cl)c3)n2)cc1OC = 97.3

// lookup GFP response vs DMSO for COC(=O)c1ccc(C2Nc3cccc4cccc(c34)N2)cc1
102

Another molecule to check: CC1=NNC(=O)/C1=C\c1cn(-c2ccccc2)nc1-c1cccs1
88

Now consider O=C(O)Cc1ccc2ccc3ccccc3c2c1 and answer again.
92.8

Queued: N=C1S/C(=C\c2ccco2)C(=O)N1c1nccs1
108

Could you do the same for O=C(Nc1nccs1)C1CCCN1S(=O)(=O)c1ccc(F)cc1 (centres undefined) , please?
99.8

Next record, please: O=S(=O)(c1ccccc1)N1N=C(c2cccs2)CC1c1ccc(Br)cc1 (centres undefined)
99.4

###

GFP response, % of DMSO values, listed per item
- measurement-notes: modulators of CIT2-GFP expression in yeast, confirmation, S. cerevisiae, GFP fusion, cherry picks, mother/daughter gates (AID 2274)
- condition-parameters: S. cerevisiae CIT2-GFP strain, flow cytometry, 3 h; at 10 µM; stronger effect = higher value
Return type: number; implicit unit %.

• COc1ccc(N2C(=O)C(Cl)=C(Nc3ccccc3O)C2=O)cc1 = 100

Which GFP response, % of DMSO is reported for this compound? O=C(Nc1ccc(NC(=O)c2cc3ccccc3o2)cc1)c1ccc2c(c1)OCCO2
105

CCN(CC)S(=O)(=O)c1cccc(C(=O)NCC(c2ccccc2)N(C)C)c1 (stereo not given) ?
104

Try the compound O=C(O)c1ccccc1C(=O)N1CCN(c2cccc(Cl)c2)CC1
96.4

Likewise for O=C(O)CCc1ccc(-c2ccc(Cl)cc2)o1 ?
94.4

Record: COc1cccc(-c2nnc(NC(=O)c3ccc(S(=O)(=O)N(CC(C)C)CC(C)C)cc3)o2)c1
102

And the next one, COc1ccc2c(c1)c(/C=C/c1cc[n+](C)cc1)cn2C ?
150

Same question, COc1ccc(C2=CC(=O)N(Nc3ccccc3)C2=O)cc1 this time
99.1

Subsequent entry: CCN(CC)c1ccc2cc(-c3nc4ccccc4[nH]3)c(=O)oc2c1
135

Another compound to look at: Cc1cc(C(=O)Nc2nc(-c3ccccn3)cs2)ccc1[N+](=O)[O-]
105

Would you kindly repeat that for Cc1c(C(=O)NCCSCc2cccc(C(F)(F)F)c2)cnn1-c1ccc(F)cc1 ?
108

Then O=C(Nc1ccc(NC(=O)c2cc3ccccc3o2)cc1)c1ccco1 ?
98.8

Moving on to the next compound: NC(=O)COc1ccc(C(=O)/C=C2/C(=O)Nc3ccccc32)cc1
101

Record: Cc1cc(-c2csc3nc[nH]c(=S)c23)cc(C)c1C
106

###

- measurement-notes: modulators of MEP2-GFP levels in yeast, confirmation, S. cerevisiae, flow cytometry GFP, cherry picks (AID 2272);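 also: ratio of well signal to plate DMSO mean so 100% equals DMSO level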
- condition-parameters: S. cerevisiae MEP2-GFP strain, 3 h, at 10 µM, stronger effect = higher value
Each entry below carries its reported GFP response vs DMSO.
Supply the numeric figure in %, leaving out any unit text.

Look up GFP response vs DMSO: Cc1cccn2c(=O)c(/C=C(\C#N)C(=O)NCc3ccccc3)c(N3CCC(C(N)=O)CC3)nc12
101

Another: O=C(CSc1nnc(C2COc3ccccc3O2)o1)N1CCCC1 (stereo not given)
98.8

Then what about the molecule COc1ccc(CN2CCSc3sccc3C2=O)cc1 ?
92.6

Same lookup for C/C(=N\NC(=O)c1c(Br)c(C)nn1C)c1cccc(NC(=O)C2CCC2)c1 , please.
102

Consider next the molecule COc1cccc(C(=O)Nc2ccccc2)c1 in the same way.
105

###

Below, each entry is listed alongside its reported GFP response, % of DMSO.
- measurement-notes: modulators of CIT2-GFP expression in yeast, confirmation, S. cerevisiae, GFP fusion, cherry picks, mother/daughter gates (AID 2274)
- condition-parameters: S. cerevisiae CIT2-GFP strain, flow cytometry, 3 h; at 10 µM; stronger effect = higher value
Please respond with the number in % and leave the unit unwritten.

- CCCc1[nH]nc2c1C(c1cccc(OC)c1)C(C#N)=C(N)O2 (centres undefined): 102

Record request: GFP response, % of DMSO value, item CC(=O)Oc1oc(-c2ccccc2)nc1C=Nc1ccccc1
90.3

Another compound to look at: O=C(c1ccc(Cl)cc1)N1CCN(c2cccc3[nH]ccc23)CC1
96.9

Can you check C/C(CC(=O)Nc1cc(C)ccn1)=N\NC(=O)c1cccc(F)c1 next?
93.9

###

In this section, each of the compounds is paired with its reported GFP response relative to DMSO.
- measurement-notes: LAP4-GFP expression modulators in yeast, confirmation, cell-based, cherry picks, flow cytometry, mother/daughter gates (AID 2271);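 also: ratio of sample to DMSO plate mean so 100% equals DMSO level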
- condition-parameters: S. cerevisiae LAP4-GFP strain, 3 h, measured here: mother cell gate response, at 10 µM, stronger effect = higher value, 100 means same as DMSO control
Your answer is read as %, so omit the unit and give the number.

These recorded examples may help you get a feel for the data.
* CCOC(=O)c1sc(NC(=O)c2ccco2)nc1-c1ccccc1 | 98.4
* COC(=O)c1ccccc1OCC(=O)NC1CCCCC1 | 145
* COc1cccc(-c2nnc(NC(=O)c3ccc(S(=O)(=O)N(CC(C)C)CC(C)C)cc3)o2)c1 | 97.5
* COc1ccc(N=Cc2nc(-c3ccccc3)oc2OC(=O)c2ccccc2)cc1 | 111

Field request: GFP response relative to DMSO | item: COc1ccc(-c2noc(CCC(=O)Nc3cccc(C)c3)n2)cc1
108

Ok, now Cc1ccc(S(=O)(=O)Cc2cc(F)c([N+](=O)[O-])cc2[N+](=O)[O-])cc1
223

Quick one: O=C(c1ccc2ccccc2c1)N1CCN(c2ccc(O)cc2)CC1
101

What do you have for COc1cc(C)c(C)cc1S(=O)(=O)N1CCCCC1c1cccnc1 (stereo not drawn) ?
99.5
